- Assay summary: Growth inhibition of human HaCaT cells after 48 hrs by sulforhodamine B dye-based spectrophotometric assay
- Type: cell-based
The entries below are paired with their reported GI50 at 48 h.
Expressed in µM, but write only the number.

Worked cases, GI50 at 48 h given:
>>> df
                              record_smiles  readout_kind  observed_value
0  S=C(N/N=C/c1c[nH]c2ccccc12)Nc1cccc2ccccc12  GI50 at 48 h            0.59
1  COc1cccc2c1C(=O)c1c(O)c3c(c(O)c1C2=O)C[C@@](O)(C(=O)CO)C[C@@H]3O[C@H]1C[C@H](N)[C@H](O)[C@H](C)O1  GI50 at 48 h             0.2
2  S=C(N/N=C/c1c[nH]c2ccc(Br)cc12)Nc1cccc2ccccc12  GI50 at 48 h            6.15
3   Cc1ccc(NC(=S)N/N=C/c2c[nH]c3ccccc23)cc1  GI50 at 48 h            0.99
4  O=C1CS/C(=N/N=C/c2c[nH]c3ccccc23)N1c1cccc2ccccc12  GI50 at 48 h              63

Exam item: I am curious: what GI50 at 48 h value has been reported for "Cc1ccc(N2C(=O)CS/C2=N/N=C/c2c[nH]c3ccc(Br)cc23)cc1" ?
Marked response: 54

Exam item: I am curious: what GI50 at 48 h value has been reported for "S=C(NCCc1ccccc1)N/N=C/c1c[nH]c2ccc(Br)cc12" ?
Marked response: 7.85

Exam item: I am curious: what GI50 at 48 h value has been reported for "O=C1CS/C(=N/N=C/c2c[nH]c3ccc(Br)cc23)N1c1cccc2ccccc12" ?
Marked response: 6.23

Values compiled from ChEMBL document CHEMBL4138095.
